So I've got a bunch of compounds here, and I need their inhibition at 1 µM values.
# tested-target: UniProt O00519
# test-description: In vitro competitive activity-based protein profiling, FAAH, human
# assay-context: read-out: FAAH % inh. 1 μM (human)

compound	observed-measurement
O=C(O)c1ccn(C(=O)N2CCN(Cc3ccc(C(F)(F)F)c(N4CC5COCC5C4)c3)CC2)n1 (stereo not shown)	0 to 25%

Answer for every listed entry: what is its inhibition at 1 µM? The entries follow.
1. O=C(O)c1ccn(C(=O)N2CCN(Cc3cccc(Oc4cccnc4)c3)CC2)n1
2. NC(=O)c1ccn(C(=O)N2CC3CN(Cc4ccc(C(F)(F)F)cc4)CC3C2)n1 (stereo not shown)
3. NC(=O)c1ccn(C(=O)N2CCN(Cc3ccc(C(F)(F)F)cc3N3CCCC3)CC2)n1
4. C[C@H]1CCCCN1c1cc(C(F)(F)F)ccc1CN1CCN(C(=O)n2ccc(C(=O)O)n2)CC1
5. O=C(O)c1ccn(C(=O)N2CCC3(CCN(C(=O)c4cc5ccc(C(F)(F)F)cc5s4)C3)CC2)n1
6. NC(=O)C1CCN(c2cc(C(F)(F)F)ccc2CN2CCN(C(=O)n3ccc(C(=O)O)n3)CC2)CC1

Resp:
0 to 25%
> 75%
> 75%
0 to 25%
0 to 25%
0 to 25%

###

# tested-target: FAAH (Homo sapiens)
# Sequence (O00519 whole entry): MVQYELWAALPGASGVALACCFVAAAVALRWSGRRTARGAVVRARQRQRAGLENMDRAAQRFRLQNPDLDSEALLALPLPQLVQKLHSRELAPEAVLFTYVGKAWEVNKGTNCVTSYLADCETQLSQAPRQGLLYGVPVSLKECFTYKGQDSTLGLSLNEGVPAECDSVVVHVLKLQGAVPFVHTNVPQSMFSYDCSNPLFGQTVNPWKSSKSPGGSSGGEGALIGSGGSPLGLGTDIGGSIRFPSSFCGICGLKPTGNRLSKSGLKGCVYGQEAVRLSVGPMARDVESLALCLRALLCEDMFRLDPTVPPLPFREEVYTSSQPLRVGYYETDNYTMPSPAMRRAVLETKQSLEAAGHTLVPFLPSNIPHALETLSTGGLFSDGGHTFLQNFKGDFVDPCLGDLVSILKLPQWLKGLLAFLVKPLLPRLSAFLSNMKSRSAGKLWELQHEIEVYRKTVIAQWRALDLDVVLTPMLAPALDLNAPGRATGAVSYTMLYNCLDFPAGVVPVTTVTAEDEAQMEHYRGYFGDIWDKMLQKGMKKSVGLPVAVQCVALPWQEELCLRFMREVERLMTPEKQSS
# test-description: In vitro competitive activity-based protein profiling, FAAH, human
# assay-context: read-out: FAAH % inh. 1 μM (human)
So I've got a bunch of molecules here, and I need their inhibition at 1 µM values.

# annotated cases, reported inhibition at 1 µM shown
molecule	inhibition at 1 µM
O=C(O)c1ccn(C(=O)N2CCN(Cc3ccc(C(F)(F)F)cc3N3CCC(F)(F)CC3)CC2)n1	0 to 25%
O=C(O)c1nn(C(=O)N2CCC3(CCCN3Cc3cc4ccc(C(F)(F)F)cc4s3)CC2)cc1C(F)(F)F	25 to 50%
O=C(O)c1ccn(C(=O)N2CCN(Cc3cc(F)cc(Oc4ccc(Cl)cc4)c3)CC2)n1	> 75%

Answer for every listed entry: what is its inhibition at 1 µM? The entries follow.
1. CN(Cc1cccc(C(F)(F)F)c1)C1CCN(C(=O)n2ccc(C(N)=O)n2)CC1
2. O=C(O)c1ccn(C(=O)N2C[C@H]3C[C@H](OCc4ccccc4Cl)C[C@H]3C2)n1
3. O=C(O)c1ccn(C(=O)N2CCC3(CCN(Cc4ccc(C(F)(F)F)cc4Cl)C3)CC2)n1

Resp:
1. > 75%
2. > 75%
3. 0 to 25%

Answer for every listed entry: what is its inhibition at 1 µM? The entries follow.
1. O=C(O)c1ccn(C(=O)N2CC3CN(Cc4ccc(Cl)c(N5CC6COCC6C5)c4)CC3C2)n1 (stereo not shown)
2. O=C(O)c1ccn(C(=O)N2CCN(Cc3cccc(Oc4cncnc4)c3)CC2)n1

Resp:
1. 0 to 25%
2. 0 to 25%

Answer for every listed entry: what is its inhibition at 1 µM? The entries follow.
1. O=C(O)c1ccn(C(=O)N2C[C@H]3C[C@H](Oc4cccc(-c5ccccc5)c4)C[C@H]3C2)n1
2. O=C(O)c1ccn(C(=O)N2CCN(Cc3ccc(Oc4ccc(Cl)cc4)cc3)CC2)n1
3. CN(Cc1cc(Cl)ccc1C(F)(F)F)CC1CCN(C(=O)n2ccc(C(=O)O)n2)CC1
4. O=C(O)c1ccn(C(=O)N2CCN(Cc3ccc(Cl)cc3-c3nnco3)CC2)n1
5. O=C(O)c1ccn(C(=O)N2CCN(Cc3ccc(C(F)(F)F)c(N4CCCC4)c3)CC2)n1
6. O=C(O)c1nn(C(=O)N2CC3CN(Cc4cc(Cl)ccc4Cl)CC3C2)cc1C(F)(F)F (stereo not shown)

Resp:
1. > 75%
2. > 75%
3. > 75%
4. 0 to 25%
5. 0 to 25%
6. > 75%

###

# tested-target: MAGL (Homo sapiens, UniProt Q99685)
# Sequence (Q99685 whole entry): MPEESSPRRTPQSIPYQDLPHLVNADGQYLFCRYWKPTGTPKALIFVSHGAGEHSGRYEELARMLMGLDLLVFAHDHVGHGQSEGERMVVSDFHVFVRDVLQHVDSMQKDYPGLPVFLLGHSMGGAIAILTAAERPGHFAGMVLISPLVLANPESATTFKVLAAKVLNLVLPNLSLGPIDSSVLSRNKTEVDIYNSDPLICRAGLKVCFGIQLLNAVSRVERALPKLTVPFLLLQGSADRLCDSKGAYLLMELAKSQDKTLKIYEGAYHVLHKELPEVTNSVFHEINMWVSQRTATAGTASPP
# test-description: In vitro competitive activity-based protein profiling, MAGL, human
# assay-context: read-out: MAGL % inh. 1 μM (human)
So I've got a bunch of compounds here, and I need their inhibition at 1 µM values.

# annotated cases, reported inhibition at 1 µM shown
compound-string	inhibition at 1 µM
O=C(O)c1ccn(C(=O)N2CCC3(CCCN3Cc3ccc(Cl)cc3N3CCCC3)CC2)n1	> 75%
O=C(O)c1ccn(C(=O)N2CCC3(CCN(Cc4ccc(C(F)(F)F)cc4N4CCC(F)CC4)CC3)C2)n1	50 to 75%
O=C(O)c1ccn(C(=O)N2C[C@H]3C[C@H](OCc4cccc(C5CCCC5)c4)C[C@H]3C2)n1	> 75%

Now look at this one.
Req: Output measured inhibition at 1 µM for this item: O=C(O)c1ccn(C(=O)N2CCN(Cc3ccc(Cl)cc3N3CCN(C4CC4)CC3)CC2)n1
Resp: > 75%

###

# tested-target: FAAH (Mus musculus)
# Sequence (O08914 whole entry): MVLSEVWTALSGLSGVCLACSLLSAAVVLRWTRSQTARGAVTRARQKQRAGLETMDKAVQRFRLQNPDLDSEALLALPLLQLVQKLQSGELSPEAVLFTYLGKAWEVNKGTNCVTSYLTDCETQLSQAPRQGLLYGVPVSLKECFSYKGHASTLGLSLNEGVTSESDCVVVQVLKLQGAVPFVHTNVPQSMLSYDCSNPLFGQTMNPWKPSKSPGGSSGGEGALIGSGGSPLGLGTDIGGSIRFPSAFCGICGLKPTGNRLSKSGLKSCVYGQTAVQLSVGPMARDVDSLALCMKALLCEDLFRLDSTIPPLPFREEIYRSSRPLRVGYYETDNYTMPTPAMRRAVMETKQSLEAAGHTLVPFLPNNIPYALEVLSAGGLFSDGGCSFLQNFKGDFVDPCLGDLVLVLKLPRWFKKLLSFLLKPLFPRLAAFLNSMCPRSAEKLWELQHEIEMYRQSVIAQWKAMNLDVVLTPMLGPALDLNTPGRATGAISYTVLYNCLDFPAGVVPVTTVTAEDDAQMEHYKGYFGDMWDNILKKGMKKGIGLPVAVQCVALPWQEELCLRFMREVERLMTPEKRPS
# test-description: In vitro competitive activity-based protein profiling, FAAH, mouse
# assay-context: read-out: FAAH % inh. 1 μM (mouse)
experimental-endpoint: inhibition at 1 µM

compound	inhibition at 1 µM
O=C(O)c1nn(C(=O)N2CC3CN(Cc4cccc(Oc5ccc(Cl)cc5)c4)CC3C2)cc1Cl (stereo not shown) [Example 137]	> 75%
O=C(O)c1ccn(C(=O)N2CC3CN(Cc4ccc(Cl)c(N5CC6COCC6C5)c4)CC3C2)n1 (stereo not shown) [Example 166]	0 to 25%

Answer for every listed entry: what is its inhibition at 1 µM? The entries follow.
1. O=C(O)c1ccn(C(=O)N2CCC3(CCN(Cc4cc(F)cc(C(F)(F)F)c4)C3)CC2)n1 [Example 152]
2. O=C(O)c1ccn(C(=O)N2CCN(Cc3ccc(C(F)(F)F)c(N4CCCC4)c3)CC2)n1 [Example 7]
3. Cc1c(CN2CCC3(CCN(C(=O)n4ccc(C(=O)O)n4)CC3)C2)cccc1C(F)(F)F [Example 71]
4. O=C(O)c1nn(C(=O)N2CC3CN(Cc4cc(Cl)ccc4Cl)CC3C2)cc1Cl (stereo not shown) [Example 136]
5. CN(Cc1cccc(-c2ccccc2)c1)[C@@H]1C[C@@H]2CN(C(=O)n3ccc(C(=O)O)n3)C[C@@H]2C1 [Example 163]
6. CN(Cc1cc(Cl)ccc1C(F)(F)F)CC1CCN(C(=O)n2ccc(C(=O)O)n2)CC1 [Example 209]
7. O=C(O)c1ccn(C(=O)N2CCC(Oc3ccc(Cl)cc3N3CCCC3)CC2)n1 [Example 11]

Resp:
1: 50 to 75%; 2: 0 to 25%; 3: 0 to 25%; 4: > 75%; 5: 0 to 25%; 6: > 75%; 7: 0 to 25%

###

# tested-target: UniProtKB O00519
# test-description: In vitro competitive activity-based protein profiling, FAAH, human
# assay-context: read-out: FAAH % inh. 1 μM (human)
So I've got a bunch of compounds here, and I need their inhibition at 1 µM values.

# annotated cases, reported inhibition at 1 µM shown
compound	tested-target	inhibition at 1 µM
O=C(O)c1nn(C(=O)N2CC3CN(Cc4ccc(-c5cnc6ccccn56)cc4C(F)(F)F)CC3C2)cc1Cl (stereo not shown)	UniProtKB O00519	> 75%
O=C(O)c1ccn(C(=O)N2CC3CN(Cc4cccc(Oc5ccc(Cl)cc5)c4)CC3C2)n1 (stereo not shown)	UniProtKB O00519	> 75%

Answer for every listed entry: what is its inhibition at 1 µM? The entries follow.
1. Cc1cc(CO[C@H]2C[C@@H]3CN(C(=O)n4ccc(C(=O)O)n4)C[C@@H]3C2)ccc1C(F)(F)F
2. CC(C)(O)C1CCN(c2cc(C(F)(F)F)ccc2CN2CCN(C(=O)n3ccc(C(=O)O)n3)CC2)CC1

Resp:
["> 75%", "0 to 25%"]

Answer for every listed entry: what is its inhibition at 1 µM? The entries follow.
1. O=C(O)c1ccn(C(=O)N2CCC(Oc3ccc(Cl)cc3N3CCCC3)CC2)n1
2. O=C(O)c1ccn(C(=O)N2CCC3(CCCN3C(=O)c3cc4ccc(C(F)(F)F)cc4s3)CC2)n1
3. Cc1cc(-c2ccccc2)ccc1CN1CCN(C(=O)n2ccc(C(=O)O)n2)CC1

Resp:
1. 0 to 25%
2. 0 to 25%
3. 0 to 25%

###

So I've got a bunch of compounds here, and I need their inhibition at 1 µM values.
# tested-target: UniProt:O08914
# test-description: In vitro competitive activity-based protein profiling, FAAH, mouse
# assay-context: read-out: FAAH % inh. 1 μM (mouse)

Answer for every listed entry: what is its inhibition at 1 µM? The entries follow.
1. O=C(O)c1ccn(C(=O)N2CCN(Cc3cc(N4CCCC4)cc(C(F)(F)F)c3)CC2)n1
2. O=C(O)c1ccn(C(=O)N2CCC3(CCCN3Cc3ccc(C(F)(F)F)cc3-c3nnn[nH]3)CC2)n1
3. CN(Cc1ccc(Cl)cc1N1CCCC1)C1(C)CCN(C(=O)n2ccc(C(=O)O)n2)CC1
4. CN(Cc1cccc(C(F)(F)F)c1)C1CCN(C(=O)n2ccc(C(N)=O)n2)CC1
5. O=C(O)c1ccn(C(=O)N2CCN(Cc3ccc(Cl)cc3)CC2)n1

Resp:
1: 0 to 25%; 2: 0 to 25%; 3: 0 to 25%; 4: > 75%; 5: 0 to 25%
